target: UniProt:P49841; test: radiometric filter-binding kinase assay, Kinase HotSpot; conditions: compound 0.5 µM; ATP 10 µM
Sequence (P49841 whole entry, looked up): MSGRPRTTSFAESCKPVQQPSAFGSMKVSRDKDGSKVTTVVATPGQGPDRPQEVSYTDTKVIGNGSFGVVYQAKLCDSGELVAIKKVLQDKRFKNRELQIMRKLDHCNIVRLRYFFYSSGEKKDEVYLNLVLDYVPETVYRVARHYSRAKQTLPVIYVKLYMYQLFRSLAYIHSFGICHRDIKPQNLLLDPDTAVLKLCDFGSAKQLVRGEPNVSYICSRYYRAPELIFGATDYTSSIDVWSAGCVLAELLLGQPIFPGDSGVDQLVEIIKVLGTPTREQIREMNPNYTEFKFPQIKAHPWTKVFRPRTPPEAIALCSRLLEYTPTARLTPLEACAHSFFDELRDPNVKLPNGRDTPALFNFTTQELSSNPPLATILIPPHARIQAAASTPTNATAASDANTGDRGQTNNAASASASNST
assayReadout: residual activity (%)
Give bare numbers, in %.

Example molecules with recorded residual activity:
INSERT INTO assay_data (molecule, assaysystem, observedmeasurement) VALUES
  ('CCn1cnc2c(Nc3cccc(Cl)c3)nc(N[C@@H]3CCCC[C@@H]3N)nc21', 'UniProt:P49841', 104),
  ('O=C(Nc1cccc(Nc2cc(Nc3cccc(C(F)(F)F)c3)ncn2)c1)C1CC1', 'UniProt:P49841', 114),
  ('CN(C)C[C@H]1CCn2c(c(C3=C(c4cn(C)c5ccccc45)C(=O)NC3=O)c3ccccc32)C1', 'UniProt:P49841', 11.2),
  ('O=C1Nc2ccccc2/C1=C1\Nc2ccccc2\C1=N/O', 'UniProt:P49841', 27.3),
  ('O=C1NC(=O)C(c2cn(CCCO)c3ncccc23)=C1c1cnccn1', 'UniProt:P49841', 25.2);

For each of the molecules below, note its residual activity.
1. O=C1NC(=O)C(c2c[nH]c3ccccc23)=C1c1c[nH]c2ccccc12
2. O=C1Nc2ccccc2/C1=C1/Nc2ccccc2/C1=N\OCCC(O)CO (stereo unspecified)
3. Cn1nc2c3c(cccc31)C(=O)c1ccccc1-2
4. Oc1ccc(Nc2nc(-c3ccc(Cl)cc3)cs2)cc1

1. 28.4
2. 12.6
3. 94
4. 110

Please report residual activity for every entry that follows.
1. CC(=O)O/N=C1\C(=C2\C(=O)Nc3cc(Br)ccc32)Nc2ccccc21
2. O=C1Cc2c([nH]c3ccc(Br)cc23)-c2ccccc2N1

1: 14.3; 2: 19.7

* * *

biological target: MAPKAPK2 (human); test: radiometric filter-binding kinase assay, Kinase HotSpot; conditions: compound 0.5 µM; ATP 10 µM
Kindly supply the reported residual activity values for the records listed here.
Answers are plain numbers, in %.

Would you please look over these solved cases?
INSERT INTO results (molsmiles, assaysystem, unitsofmeasure, observedmeasurement) VALUES
  ('COc1cc2ncnc(N3CCN(C(=O)Nc4ccc(Oc5ccccc5)cc4)CC3)c2cc1OC', 'MAPKAPK2 (human)', '%', 102),
  ('COc1ccc(OC)c2c(=S)c3ccccc3[nH]c12', 'MAPKAPK2 (human)', '%', 94.6),
  ('O=C1Cc2c([nH]c3ccc(Br)cc23)-c2ccccc2N1', 'MAPKAPK2 (human)', '%', 101),
  ('CN([C@@H](Cc1ccc(OS(=O)(=O)c2cccc3cnccc23)cc1)C(=O)N1CCN(c2ccccc2)CC1)S(=O)(=O)c1cccc2cnccc12', 'MAPKAPK2 (human)', '%', 103);

Now turn to the next molecule.
API: value(readout= residual activity, system= MAPKAPK2 (human), query= `COc1cc2ncc(-c3ccccc3)nc2cc1OC` )
85.9

* * *

target: BRSK1 (human); assay: radiometric filter-binding kinase assay, Kinase HotSpot; settings: compound 0.5 µM; ATP 10 µM
For each record, write down the corresponding residual activity.
Give bare numbers, in %.

INSERT INTO results (molsmiles, assaysystem, observedmeasurement) VALUES
  ('COc1cc2ncc(-c3ccccc3)nc2cc1OC', 'BRSK1 (human)', 102),
  ('COc1ccc(CNC(=O)Nc2ncc([N+](=O)[O-])s2)cc1', 'BRSK1 (human)', 102),
  ('CC(C)[C@H](CO)Nc1nc(Nc2cc(N)cc(Cl)c2)c2ncn(C(C)C)c2n1', 'BRSK1 (human)', 93.1),
  ('O=C1NC(=O)C(c2cn(CCCO)c3ncccc23)=C1c1cnccn1', 'BRSK1 (human)', 89.2),
  ('CN([C@@H](Cc1ccc(OS(=O)(=O)c2cccc3cnccc23)cc1)C(=O)N1CCN(c2ccccc2)CC1)S(=O)(=O)c1cccc2cnccc12', 'BRSK1 (human)', 96.4);

Report residual activity for every entry below.
1. O=C1Cc2c([nH]c3ccc(Br)cc23)-c2ccccc2N1
2. CC(C)c1nn(-c2c(Cl)cccc2Cl)c2nc(Cc3ccc(OCCO)cc3)nc(O)c12
3. Nc1nnc2[nH]c3ccccc3nc1-2
4. COc1ccc(OC)c2c(=S)c3ccccc3[nH]c12
5. COc1cc2ncnc(N3CCN(C(=O)Nc4ccc(Oc5ccccc5)cc4)CC3)c2cc1OC

1. 60.5
2. 91.3
3. 91.5
4. 93.7
5. 86.4

* * *

target: UniProt P22612; test: radiometric filter-binding kinase assay, Kinase HotSpot; conditions: compound 0.5 µM; ATP 10 µM
Sequence (P22612 whole entry, looked up): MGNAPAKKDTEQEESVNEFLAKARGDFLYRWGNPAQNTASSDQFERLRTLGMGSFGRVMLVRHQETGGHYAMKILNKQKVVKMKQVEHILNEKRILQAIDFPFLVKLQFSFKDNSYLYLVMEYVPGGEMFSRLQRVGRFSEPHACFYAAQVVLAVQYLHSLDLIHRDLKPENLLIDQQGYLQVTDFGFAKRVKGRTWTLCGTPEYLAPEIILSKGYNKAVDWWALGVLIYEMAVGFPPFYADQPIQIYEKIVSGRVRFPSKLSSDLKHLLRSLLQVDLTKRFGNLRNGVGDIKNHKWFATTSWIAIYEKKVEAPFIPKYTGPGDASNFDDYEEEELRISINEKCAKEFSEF
Kindly state residual activity for each of the entries shown.
One number for each entry, in %.

State recorded residual activity for all listed compounds.
1. Cn1nc2c3c(cccc31)C(=O)c1ccccc1-2
2. CN([C@@H](Cc1ccc(OS(=O)(=O)c2cccc3cnccc23)cc1)C(=O)N1CCN(c2ccccc2)CC1)S(=O)(=O)c1cccc2cnccc12

1: 107; 2: 107

* * *

target: TGFBR1 (human); assay: radiometric filter-binding kinase assay, Kinase HotSpot; conditions: compound 0.5 µM; ATP 10 µM
Would you kindly list residual activity for each of these molecules?
Answers are plain numbers, in %.

INSERT INTO results (molecule, unitsofmeasure, observedmeasurement) VALUES
  ('Nc1nccc(-c2c(-c3ccc(F)cc3)ncn2C2CCNCC2)n1', '%', 102);

Can you give me residual activity for all of these, one by one?
1. Cn1cnc2cc3c(Nc4cccc(Br)c4)ncnc3cc21
2. CCn1cnc2c(Nc3cccc(Cl)c3)nc(N[C@@H]3CCCC[C@@H]3N)nc21
3. COc1ccc(CNC(=O)Nc2ncc([N+](=O)[O-])s2)cc1

1. 97.6
2. 95.6
3. 95.8

Value sought for every listed molecule: residual activity.
1. Cn1nc2c3c(cccc31)C(=O)c1ccccc1-2
2. Nc1nnc2[nH]c3ccccc3nc1-2
3. CCN(CC)CCCCN1c2ccccc2Oc2ccc(Cl)cc21
4. COc1cc2ncnc(N3CCN(C(=O)Nc4ccc(Oc5ccccc5)cc4)CC3)c2cc1OC
5. O=C1Nc2ccccc2/C1=C1\Nc2ccccc2\C1=N/O
6. COc1cc2ncc(-c3ccccc3)nc2cc1OC

[93.7, 98.1, 97.2, 99.5, 98.9, 101]

// for each molecule in input: emit residual activity
1. O=C1Cc2c([nH]c3ccc(Br)cc23)-c2ccccc2N1
2. O=C1Nc2ccccc2/C1=C1/Nc2ccccc2/C1=N\OCCC(O)CO (stereo unspecified)
3. COc1ccc(OC)c2c(=S)c3ccccc3[nH]c12
4. Cn1sc(=O)n(Cc2ccccc2)c1=O
5. CC(C)c1nn(-c2c(Cl)cccc2Cl)c2nc(Cc3ccc(OCCO)cc3)nc(O)c12
6. O=C1NC(=O)/C(=C\c2ccc3nccnc3c2)S1

[97.7, 102, 99.1, 97.2, 98, 98.5]

* * *

target: EPHB4 (human); test: radiometric filter-binding kinase assay, Kinase HotSpot; settings: compound 0.5 µM; ATP 10 µM
Task for the reader: assign each of the following molecules its reported residual activity.

Example results:
INSERT INTO results (molsmiles, observedmeasurement) VALUES
  ('O=C1Cc2c([nH]c3ccc(Br)cc23)-c2ccccc2N1', '100%'),
  ('O=C(CCCc1ccc(-c2ccccc2F)cc1)Nc1ccc(O)cc1', '106%'),
  ('CC(C)[C@H](CO)Nc1nc(Nc2cc(N)cc(Cl)c2)c2ncn(C(C)C)c2n1', '58.4%'),
  ('COc1ccc(CNC(=O)Nc2ncc([N+](=O)[O-])s2)cc1', '100%'),
  ('O=C1NC(=O)/C(=C\c2ccc3nccnc3c2)S1', '101%'),
  ('Cn1sc(=O)n(Cc2ccccc2)c1=O', '100%');

// for each molecule in input: emit residual activity
1. CCN(CC)CCCCN1c2ccccc2Oc2ccc(Cl)cc21
2. COc1cc2ncnc(N3CCN(C(=O)Nc4ccc(Oc5ccccc5)cc4)CC3)c2cc1OC

["97.9%", "99.3%"]

* * *

Exercise: for every item that follows, state its recorded residual activity.
biological target: FRK (human) (UniProt P42685); assay: radiometric filter-binding kinase assay, Kinase HotSpot; settings: compound 0.5 µM; ATP 10 µM
Sequence (P42685 whole entry, looked up): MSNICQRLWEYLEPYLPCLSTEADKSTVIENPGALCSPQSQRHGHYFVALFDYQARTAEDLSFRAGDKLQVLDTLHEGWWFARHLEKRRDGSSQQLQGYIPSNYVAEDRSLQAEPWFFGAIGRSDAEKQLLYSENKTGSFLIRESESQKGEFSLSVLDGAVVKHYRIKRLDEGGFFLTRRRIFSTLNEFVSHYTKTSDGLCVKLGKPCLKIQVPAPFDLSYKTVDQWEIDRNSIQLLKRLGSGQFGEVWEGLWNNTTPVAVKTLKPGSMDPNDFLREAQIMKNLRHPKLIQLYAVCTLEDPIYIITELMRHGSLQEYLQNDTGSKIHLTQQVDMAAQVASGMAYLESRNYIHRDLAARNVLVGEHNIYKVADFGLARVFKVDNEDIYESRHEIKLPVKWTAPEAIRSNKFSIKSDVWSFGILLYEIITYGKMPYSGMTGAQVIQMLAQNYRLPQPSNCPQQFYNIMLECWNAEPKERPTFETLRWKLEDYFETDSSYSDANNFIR
Answers are plain numbers, in %.

Here's what some known entries look like.
INSERT INTO results (molsmiles, observedmeasurement) VALUES
  ('Nc1nnc2[nH]c3ccccc3nc1-2', 96.8),
  ('Cn1cnc2cc3c(Nc4cccc(Br)c4)ncnc3cc21', 93.6),
  ('Cc1nc2cc3nc(-c4cccs4)cnc3cc2n1C', 98.9),
  ('COc1ccc(CNC(=O)Nc2ncc([N+](=O)[O-])s2)cc1', 97.2);

List the reported residual activity of each molecule below.
1. CCN(CC)CCCCN1c2ccccc2Oc2ccc(Cl)cc21
2. Oc1ccc(Nc2nc(-c3ccc(Cl)cc3)cs2)cc1

98.4
106

* * *

target: TYK2 JH1 catalytic (human) (UniProt P29597); experiment: radiometric filter-binding kinase assay, Kinase HotSpot; settings: compound 0.5 µM; ATP 10 µM
Sequence (P29597 whole entry, looked up): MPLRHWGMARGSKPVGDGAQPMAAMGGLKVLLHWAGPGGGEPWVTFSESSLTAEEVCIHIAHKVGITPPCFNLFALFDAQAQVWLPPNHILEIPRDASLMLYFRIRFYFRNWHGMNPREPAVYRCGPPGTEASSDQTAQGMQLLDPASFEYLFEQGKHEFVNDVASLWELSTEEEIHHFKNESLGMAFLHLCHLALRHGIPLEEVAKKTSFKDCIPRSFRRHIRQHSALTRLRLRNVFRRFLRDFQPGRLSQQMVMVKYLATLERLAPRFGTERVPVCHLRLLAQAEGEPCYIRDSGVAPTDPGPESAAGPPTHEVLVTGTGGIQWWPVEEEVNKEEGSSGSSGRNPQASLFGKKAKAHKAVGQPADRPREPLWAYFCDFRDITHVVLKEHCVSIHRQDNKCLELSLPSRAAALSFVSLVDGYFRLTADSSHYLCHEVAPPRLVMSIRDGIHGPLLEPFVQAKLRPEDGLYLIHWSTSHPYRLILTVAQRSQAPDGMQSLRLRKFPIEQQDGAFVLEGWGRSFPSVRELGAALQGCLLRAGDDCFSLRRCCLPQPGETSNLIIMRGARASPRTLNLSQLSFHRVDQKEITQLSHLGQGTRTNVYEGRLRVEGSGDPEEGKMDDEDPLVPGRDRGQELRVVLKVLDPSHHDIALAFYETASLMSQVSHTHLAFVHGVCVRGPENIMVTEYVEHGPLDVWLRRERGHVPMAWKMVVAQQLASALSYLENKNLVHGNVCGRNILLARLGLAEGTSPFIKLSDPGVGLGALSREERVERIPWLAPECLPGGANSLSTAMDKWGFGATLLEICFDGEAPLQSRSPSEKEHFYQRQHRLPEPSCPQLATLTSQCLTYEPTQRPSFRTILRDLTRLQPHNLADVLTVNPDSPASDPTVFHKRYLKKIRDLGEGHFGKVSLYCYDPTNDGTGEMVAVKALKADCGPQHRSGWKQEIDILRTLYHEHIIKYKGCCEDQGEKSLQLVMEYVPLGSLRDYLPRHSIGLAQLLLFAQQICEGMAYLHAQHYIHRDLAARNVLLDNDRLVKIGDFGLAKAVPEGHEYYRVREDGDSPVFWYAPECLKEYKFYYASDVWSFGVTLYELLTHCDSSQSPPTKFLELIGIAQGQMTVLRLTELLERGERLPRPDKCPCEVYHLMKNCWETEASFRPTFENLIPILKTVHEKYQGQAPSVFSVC
So I've got a bunch of compounds here, and I need their residual activity values.
Numbers only, in %.

// known answers, use as guide
INSERT INTO results (molsmiles, observedmeasurement) VALUES
  ('COc1ccc(CNC(=O)Nc2ncc([N+](=O)[O-])s2)cc1', 108),
  ('COc1cc2ncnc(N3CCN(C(=O)Nc4ccc(Oc5ccccc5)cc4)CC3)c2cc1OC', 83.1),
  ('O=C1NC(=O)C(c2cn(CCCO)c3ncccc23)=C1c1cnccn1', 96.9),
  ('Oc1ccc(Nc2nc(-c3ccc(Cl)cc3)cs2)cc1', 110),
  ('CC(C)[C@H](CO)Nc1nc(Nc2cc(N)cc(Cl)c2)c2ncn(C(C)C)c2n1', 57.9);

Would you be so kind as to report residual activity for each listed record?
1. Cn1nc2c3c(cccc31)C(=O)c1ccccc1-2
2. O=C(O)/C=C/c1cc(Br)c(Br)c(Br)c1Br
3. CN(C)C[C@H]1CCn2c(c(C3=C(c4cn(C)c5ccccc45)C(=O)NC3=O)c3ccccc32)C1
4. Nc1nnc2[nH]c3ccccc3nc1-2

1. 89.4
2. 110
3. 104
4. 107

For each of the items listed, what is its residual activity?
1. CC(=O)O/N=C1\C(=C2\C(=O)Nc3cc(Br)ccc32)Nc2ccccc21
2. Cc1nc2cc3nc(-c4cccs4)cnc3cc2n1C

1: 81.6; 2: 102
